// provenance: patent US20190083615A1

Listed next: entries and their corresponding koff.
STUDY SYSTEM: T1, Human LAG3-His: [VEGF leader]-LAG3_H-[His9G] (human, UniProt P18627 23-450)
T1 construct: also called human LAG3-His tagged recombinant protein; hLAG3-His
T1 sequence: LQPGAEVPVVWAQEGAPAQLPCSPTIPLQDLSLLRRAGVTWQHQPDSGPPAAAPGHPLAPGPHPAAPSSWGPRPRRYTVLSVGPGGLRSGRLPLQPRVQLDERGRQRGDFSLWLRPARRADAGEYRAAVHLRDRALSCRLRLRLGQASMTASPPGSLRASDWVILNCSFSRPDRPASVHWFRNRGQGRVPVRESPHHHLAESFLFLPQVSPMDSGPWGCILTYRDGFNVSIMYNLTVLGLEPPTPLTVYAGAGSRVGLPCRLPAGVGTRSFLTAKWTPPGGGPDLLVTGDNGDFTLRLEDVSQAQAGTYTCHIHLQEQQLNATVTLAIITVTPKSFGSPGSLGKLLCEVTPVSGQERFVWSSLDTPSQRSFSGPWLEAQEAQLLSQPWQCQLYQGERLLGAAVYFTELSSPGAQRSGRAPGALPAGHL
MEASUREMENT NOTES: SPR (Biacore T200), antibody captured on goat anti-mouse Fc, human LAG3-His as analyte, 1:1 Langmuir fit
Just the number in s⁻¹, nothing appended.

Respond only with koff recorded for mouse anti-human LAG3 antibody LB148.4A10.1H1 (antibody, mouse IgG2a, V domains shown, also called Lag3 clone 4A10) VH: EVQLLQSGAELVRSGASVKLSCTASGFNIEDYYMHWMKQRPEQGLEWIGWIDPVNGDTEYAPKFQGKATMTADTSSNTAYLHLNSLTSEDTAVYYCNFYDGYLFAFWGQGTLVTVSA VL: DIVLTQAAPSVPVTPGESVSISCRSSKSLLHSDGNTYLYWLLQRPGQSPQLLIYRMSNLASGVPDRFSGSGSGTVFTLRISRLEAEDVGIYYCMQHLEYPFTFGGGTKLEIK
0.000113
